system: NCI-H460; assay: relative viability (nuclei count vs DMSO), 5 days (fraction); higher = more cells survive; conditions: first compound 2.53 µM
For each entry below, report its relative viability value.
One number for each entry.

# example entries with known answers
{"columns": ["compound", "relative viability"],
 "data": [
  ["Nc1cccc2c1CN(C1CCC(=O)NC1=O)C2=O (configuration not stated) [Lenalidomide] + CC(=O)Nc1cccc(-n2c(=O)n(C3CC3)c(=O)c3c(Nc4ccc(I)cc4F)n(C)c(=O)c(C)c32)c1 [Trametinib] (partner 0.02 µM)", 0.127],
  ["Nc1cccc2c1CN(C1CCC(=O)NC1=O)C2=O (configuration not stated) [Lenalidomide] + Nc1nc2[nH]cc(CCc3ccc(C(=O)N[C@@H](CCC(=O)O)C(=O)O)cc3)c2c(=O)[nH]1 [Pemetrexed] (partner 0.2 µM)", 0.0659]
]}

Can you give me relative viability for all of these, one by one?
1. Nc1cccc2c1CN(C1CCC(=O)NC1=O)C2=O (configuration not stated) [Lenalidomide] + CC1(C)CCC(c2ccc(Cl)cc2)=C(CN2CCN(c3ccc(C(=O)NS(=O)(=O)c4ccc(N[C@H](CCN5CCOCC5)CSc5ccccc5)c(S(=O)(=O)C(F)(F)F)c4)cc3)CC2)C1 [Navitoclax] (partner 0.5 µM)
2. Nc1cccc2c1CN(C1CCC(=O)NC1=O)C2=O (configuration not stated) [Lenalidomide] + Cc1nc(NC(=O)N2CCC[C@H]2C(N)=O)sc1-c1ccnc(C(C)(C)C(F)(F)F)c1 [Alpelisib] (partner 2 µM)
3. Nc1cccc2c1CN(C1CCC(=O)NC1=O)C2=O (configuration not stated) [Lenalidomide] + CC(=O)c1c(C)c2cnc(Nc3ccc(N4CCNCC4)cn3)nc2n(C2CCCC2)c1=O [Palbociclib] (partner 0.5 µM)
4. Nc1cccc2c1CN(C1CCC(=O)NC1=O)C2=O (configuration not stated) [Lenalidomide] + O=C(c1cc(Cc2n[nH]c(=O)c3ccccc23)ccc1F)N1CCN(C(=O)C2CC2)CC1 [Olaparib] (partner 8 µM)
5. Nc1cccc2c1CN(C1CCC(=O)NC1=O)C2=O (configuration not stated) [Lenalidomide] + Cc1nc(Nc2ncc(C(=O)Nc3c(C)cccc3Cl)s2)cc(N2CCN(CCO)CC2)n1 [Dasatinib] (partner 0.075 µM)

1. 1.15
2. 0.667
3. 0.197
4. 0.438
5. 0.673

FYI, the data here is from the supplement of paper PMC10307832.
